measurement-target: T1, PUF4 RNA-binding domain (Saccharomyces cerevisiae, UniProt P25339 537-888)
T1 sequence: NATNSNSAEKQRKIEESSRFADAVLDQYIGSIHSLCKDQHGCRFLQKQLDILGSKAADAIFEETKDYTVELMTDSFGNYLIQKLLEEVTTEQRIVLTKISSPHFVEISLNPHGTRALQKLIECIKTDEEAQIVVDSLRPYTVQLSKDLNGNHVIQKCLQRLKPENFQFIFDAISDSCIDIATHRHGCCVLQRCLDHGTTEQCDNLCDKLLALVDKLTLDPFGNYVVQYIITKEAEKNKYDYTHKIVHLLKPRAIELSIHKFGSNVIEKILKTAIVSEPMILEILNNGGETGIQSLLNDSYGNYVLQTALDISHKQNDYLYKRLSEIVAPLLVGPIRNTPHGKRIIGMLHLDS
assay: Mg; RNA-MaP; 20 mM Na-HEPES pH 7.4, 30 mM KOAc, 0.75 mM MgCl2, 0.1% Tween-20, 5% glycerol, 0.1 mg/mL BSA, 2 mM DTT; 25 C; 0.0125-409.6 nM protein
experimental-conditions: tags: N-His6-TEV cleaved; C-SNAP kept, Cy3B-labelled; label: tethered on chip by stalled RNA polymerase
Answer each item with its documented pKd.
Please treat pKd as minus the base-10 logarithm of the molar concentration.

Q) So what does the record say about pKd for UCUCUUAGUGUAUAUAUCUCUCUU (ssRNA) [Id_ii_S1_P3E.2_K3.1_C3.2_[C-2A]_[T-1G]_H3.1_A3.1_F3.1_T3.2_[A10C]] ?
A) 7.87

Q) So what does the record say about pKd for UCUCUUUGUCUUAUUCUCUCUU (ssRNA) [Ib_S1_P5E.1_K5.1_C5.1_H5.1_[A4C]_A5.1_F5.1_[A10C]_T5.1] ?
A) 5.87

Q) Query (binder): Ic_S2_P5E.1_K5.1_C5.1_H5.1_A5.1_[T6A]_[A7T]_F5.1_[T8C]_[T9G]_[A10G]_T5.1 (ssRNA) RNA: UUUGAUUAAUAUGAUAUCGUUCUUUCUUGUAUAUCGGUUCUUUCUCGAUAUCAUAUUAAUCUUU ; field requested: pKd
A) 7.31

Q) Entry under review: UCUCUUUGUAUGUUGUCUCUU (ssRNA) [Ib_S1_P4E.1_K4.1_C4.1_H4.1_A4.1_[A6G]_F4.1_[A9G]_T4.1] . Reported pKd?
A) 6.66

Q) What measured pKd goes with UCUCUUUCAUGUAUUUAAGUUCUCUU (ssRNA) [Id_iii_S1_P4E.9_K4.5_C4.3_[T-1A]_H4.1_A4.2_F4.2_T4.2] ?
A) 6.19

Q) Which pKd is reported for this binder? Id_ii_S2_P4E.2_K4.1_C4.2_[C-2T]_[T-1G]_H4.1_A4.1_F4.1_T4.2_[G10T]_[T11C] (ssRNA) RNA: UUUGAUUAAUAUGAUAUCGUUCUUUCUUGUGUAUAUUAUCUUCUUUCUCGAUAUCAUAUUAAUCUUU
A) 9.36

Q) Bench note: what pKd did Ib_S2_P3E.1_K3.1_C3.1_H3.1_[A4G]_A3.1_[A6T]_F3.1_T3.1 (ssRNA) RNA: UUUGAUUAAUAUGAUAUCGUUCUUUCUUGUGUUUAUUCUUUCUCGAUAUCAUAUUAAUCUUU show?
A) 7.43

Q) Can you look up the measured pKd of Id_ii_S4_P4E.3_K4.2_C4.2_[C-2A]_[T-1A]_H4.2_A4.1_F4.1_T4.2_[G10T]_[T11C] (ssRNA) RNA: UUUGACAACUGAUCGUUCUUUCUAAUAUAUAUUAUCUUCUUUCUCGAUCAGUUGUCUUU for me?
A) 7.40

Q) For the binder shown here, Ib_S4_P4E.1_K4.1_C4.1_H4.1_[A4T]_A4.1_[A6G]_F4.1_T4.1 (ssRNA) RNA: UUUGACAACUGAUCGUUCUUUCUUGUUUGUUAUUCUUUCUCGAUCAGUUGUCUUU , give the reported pKd.
A) 7.19

Q) Consider the binder shown here: Ie_S4_P4E.1_K4.1_C4.1_H4.1_[+2CCTC]_A4.1_F4.1_T4.1 (ssRNA) RNA: UUUGACAACUGAUCGUUCUUUCUUGCCUCUAUAUUAUUCUUUCUCGAUCAGUUGUCUUU What is its recorded pKd?
A) 6.98

Data origin, for the record: paper PMC9352680
